Assay: Rat pharmacokinetics, oral gavage
Type: in vivo, Sprague-Dawley rats
Conditions: male, Sprague-Dawley, rat, plasma, po, 200 mg/kg, rat, Male, PO/200 mg/kg, Mean ± SD; read-out: Tmax
testReadout: Tmax (h)

cpdSmiles	testReadout	unitAbbreviation	numericReadout
CC(C)(OCc1cc(-c2cccc(OC3CCC3)c2)n(-c2ccccc2N2CCC2)n1)C(=O)O	Tmax	h	4

----------
Assay: Rat pharmacokinetics, oral gavage
Format: in vivo, Sprague-Dawley rats
Details: female, Sprague-Dawley, rat, plasma, po, 200 mg/kg, rat PO 200 mg/kg, female, mean; read-out: Tmax
testReadout: Tmax (h)

cpdSmiles	numericReadout
CC(C)(OCc1cc(-c2cccc(OC3CCC3)c2)n(-c2ccccc2N2CCC2)n1)C(=O)O	4.67
